# MEASURED ON: Itk (Homo sapiens, UniProt Q08881)
# Sequence (Q08881 whole entry, species assumed): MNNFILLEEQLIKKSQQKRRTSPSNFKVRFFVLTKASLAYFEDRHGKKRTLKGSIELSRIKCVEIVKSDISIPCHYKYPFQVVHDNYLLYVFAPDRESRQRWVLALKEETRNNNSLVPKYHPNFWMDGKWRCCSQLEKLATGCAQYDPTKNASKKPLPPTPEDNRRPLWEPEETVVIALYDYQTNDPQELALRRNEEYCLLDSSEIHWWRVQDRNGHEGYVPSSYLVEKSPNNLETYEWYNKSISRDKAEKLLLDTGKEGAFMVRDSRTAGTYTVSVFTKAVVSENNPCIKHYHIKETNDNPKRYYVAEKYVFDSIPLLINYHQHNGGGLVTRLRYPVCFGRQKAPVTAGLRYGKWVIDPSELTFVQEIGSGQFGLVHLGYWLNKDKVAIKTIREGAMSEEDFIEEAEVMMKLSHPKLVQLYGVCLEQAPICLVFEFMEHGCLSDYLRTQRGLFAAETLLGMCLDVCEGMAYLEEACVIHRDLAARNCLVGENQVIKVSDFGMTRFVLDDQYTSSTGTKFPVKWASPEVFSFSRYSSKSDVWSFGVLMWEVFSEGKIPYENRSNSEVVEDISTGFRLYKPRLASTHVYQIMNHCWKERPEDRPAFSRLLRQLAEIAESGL
# PROTOCOL DESCRIPTION: ITK inhibition assay, radioactive-phosphate incorporation
# Format: biochemical
# APPLIED CONDITIONS: [γ-33P]ATP, SAM68 peptide, 25° C.
# Method: Assays were carried out in a mixture of 20 mM MOPS (pH 7.0), 10 mM MgCl2, 0.1% BSA and 1 mM DTT. […] Assays were carried out at 25° C. in the presence of 50 nM Itk. […] Ki(app) data were calculated from non-linear regression analysis of the initial rate data using the Prism software package (GraphPad Prism version 3.0cx for Macintosh, GraphPad Software, San Diego Calif., USA).
Listing of recorded Ki by entry.
READOUT: Ki

>>> result_value("O=C(Nc1cc(-c2ccncc2)c[nH]c1=O)c1ccc(O)cc1 [Compound I-47]")
"0.1 to 1 µM"
>>> result_value("CNc1cc(-c2c[nH]c(=O)c(NC(=O)c3ccc(N4CCNCC4)cc3)c2)ccn1 [II-169]")
"< 0.1 µM"
>>> result_value("O=C(Nc1ccc(N2CCCCC2)cc1)c1cc(-c2ccncc2)c[nH]c1=O [III-44]")
"< 0.1 µM"
>>> result_value("CN1CCN(c2ccc(NC(=O)c3cc(-c4ccncc4)c[nH]c3=O)cc2)CC1 [III-46]")
"< 0.1 µM"
>>> result_value("CNc1cncc(-c2c[nH]c(=O)c(NC(=O)c3ccc(N4CCC[C@H]4CN4CCCC4)cc3)c2)n1 [II-145]")
"< 0.1 µM"
>>> result_value("O=C(Nc1cc(-c2ccncc2)c[nH]c1=O)c1ccc(Br)cc1 [Compound I-20]")
"0.1 to 1 µM"
>>> result_value("CNc1cncc(-c2c[nH]c(=O)c(NC(=O)c3ccc(N4CCC[C@H]4CN4CCCC4)cc3)c2)c1 [II-178]")
"< 0.1 µM"
>>> result_value("O=C(Nc1cc(-c2ccncc2)c[nH]c1=O)c1ccc(CN2CCOCC2)cc1 [Compound I-82]")
"0.1 to 1 µM"
>>> result_value("CNc1cncc(-c2c[nH]c(=O)c(NC(=O)c3ccc(OCCCN4CCOCC4)cc3)c2)n1 [II-182]")
"< 0.1 µM"
>>> result_value("CNCCOc1nccc(-c2c[nH]c(=O)c(NC(=O)c3ccc(N4CCCCC4)cc3)c2)n1 [II-76]")
"0.1 to 1 µM"
>>> result_value("COCCCN1CCN(c2ccc(C(=O)Nc3cc(-c4ccncc4)c[nH]c3=O)cc2)CC1 [Compound I-77]")
"< 0.1 µM"
>>> result_value("CNc1ncc(C)c(-c2c[nH]c(=O)c(NC(=O)c3ccc(C(C)(C)C)cc3)c2)n1 [II-62]")
"0.1 to 1 µM"
>>> result_value("CCN1CCCC1CNc1cccc(-c2c[nH]c(=O)c(NC(=O)c3ccc(N4CCCCC4)cc3)c2)n1 (stereo not drawn) [II-120]")
"0.1 to 1 µM"
>>> result_value("Cn1cc(-c2c[nH]c(=O)c(NC(=O)c3ccc(C(C)(C)C)cc3)c2)cn1 [II-15]")
"0.1 to 1 µM"
>>> result_value("CNc1nccc(-c2c[nH]c(=O)c(NC(=O)c3ccc(N4CCN(C(C)=O)CC4)cc3)c2)n1 [II-81]")
"< 0.1 µM"
>>> result_value("CNc1cc(-c2c[nH]c(=O)c(NC(=O)c3ccc(OCCC4CCNCC4)cc3)c2)ncn1 [II-142]")
"< 0.1 µM"
>>> result_value("CC(C)(C)c1ccc(C(=O)Nc2cc(-c3ccncn3)c[nH]c2=O)cc1 [II-34]")
"0.1 to 1 µM"
>>> result_value("CSc1nccc(-c2c[nH]c(=O)c(NC(=O)c3ccc(C(C)(C)C)cc3)c2)n1 [II-4]")
"0.1 to 1 µM"
>>> result_value("CNc1cccc(-c2c[nH]c(=O)c(NC(=O)c3ccc(OCCC4CCNCC4)cc3)c2)n1 [II-134]")
"< 0.1 µM"
>>> result_value("CCc1ccc(NC(=O)c2cc(-c3ccncc3)c[nH]c2=O)cc1 [III-7]")
"0.1 to 1 µM"
>>> result_value("CNCCNc1nccc(-c2c[nH]c(=O)c(NC(=O)c3ccc(C(C)(C)C)cc3)c2)n1 [II-20]")
"< 0.1 µM"
